Each item that follows carries a reported IC50.
target: CDK2/CyclinE1 (Homo sapiens, UniProt P24941); construct: purchased SignalChem C29-18G; assay: Assay for inhibition of CDK2/CyclinE1 (Caliper microfluidic kinase assay); type: biochemical; conditions: CDK2/CyclinE1, 100 μM ATP; read-out: CDK2 IC50
Measurement Name: IC50

>>> df
                                    compound  measurement_name  observed_measurement
 0  CC(C)c1cnn2ccc(-c3ccnc(Nc4ccc(N5CCC(C)(N)CC5=O)cc4F)n3)cc12 (stereo not shown)              IC50               < 10 nM
 1  CN(C)C1CCCN(c2ccc(Nc3nccc(-c4cc(F)c5c(c4)C(C)(C)CO5)n3)cc2)C1=O (stereo not shown)              IC50        100 to 1000 nM
 2  CC(C)c1cnn2ccc(-c3ccnc(Nc4ccc(N5CCNCC5=O)cc4F)n3)cc12              IC50               < 10 nM
 3  CC(C)c1cnn2ccc(-c3ccnc(Nc4ccc(N5CCNCC5=O)c(F)c4)n3)cc12              IC50               < 10 nM
 4  CC(C)c1cnn2ccc(-c3ccnc(Nc4ccc(N5CCCNC5=O)cn4)n3)cc12 [Synthetic Example 1]              IC50        100 to 1000 nM
 5  CC(C)n1cnc2c(F)nc(-c3ccnc(Nc4ccc(N5CCOCC5=O)cn4)n3)cc21 [Synthetic Example 61]              IC50          10 to 100 nM
 6  CC(C)c1cnn2ccc(-c3ccnc(Nc4ccc(N5CCC(N6CCC6)CC5=O)cn4)n3)cc12 (stereo not shown)              IC50               < 10 nM
 7  CC(C)n1cnc2c1CN(c1nc(Nc3ccc4c(c3)CS(=O)(=O)C4)ncc1F)CC2              IC50               < 10 nM
 8  CCN1CCN(Cc2ccc(Nc3ncc(F)c(N4CCc5ncn(C(C)C)c5C4)n3)nc2)CC1              IC50             > 1000 nM
 9  CC(C)n1cnc2c(F)nc(-c3ccnc(Nc4ccc(N5CCN(C(C)(C)C)CC5)cn4)n3)cc21              IC50        100 to 1000 nM
10  CC(C)c1cnn2ccc(-c3ccnc(Nc4ccc(C(N)=O)cc4)n3)cc12              IC50               < 10 nM
11  COc1nc(-c2nc(Nc3ccc(N4CCN(C5CCOCC5)CC4=O)cn3)ncc2F)cc2c1nc(C)n2C(C)C              IC50             > 1000 nM
12  CC(C)c1cnn2ccc(-c3ccnc(Nc4ccc(N5CCC(C)(N)CC5=O)cn4)n3)cc12 (stereo not shown)              IC50               < 10 nM
13  CC(C)c1cnn2ccc(-c3ccnc(Nc4ccc(C(=O)N5CCC(NC6CC6)C5)cc4)n3)cc12 (stereo not shown) [compound 21]              IC50               < 10 nM
14  COc1nc(-c2nc(Nc3ccc(N4CCNCC4)cn3)ncc2F)cc2c1nc(C)n2C(C)C [Synthetic Example 106]              IC50             > 1000 nM
15  CC(C)n1cnc2c(F)nc(-c3ccnc(Nc4ccc(N5CCC(C)(N)CC5=O)cc4)n3)cc21 (stereo not shown)              IC50               < 10 nM
16  CC(C)c1cnn2ccc(-c3ccnc(Nc4ccc(N5CCN(C6CCNCC6)CC5=O)cn4)n3)cc12              IC50          10 to 100 nM
17  CNC1CCCN(c2ccc(Nc3nccc(-c4ccn5nc(C)c(C(C)C)c5c4)n3)cc2)C1=O (stereo not shown)              IC50          10 to 100 nM
18  CC(C)c1cnn2ccc(-c3nc(Nc4ccc(N5CCC(N(C)C)CC5)cn4)ncc3F)cc12              IC50        100 to 1000 nM
19  Cc1cc(N2CCNCC2=O)ccc1Nc1nccc(-c2ccn3ncc(C(C)C)c3c2)n1              IC50               < 10 nM
20  Cc1nc2c(F)nc(-c3ccnc(Nc4ccc(S(N)(=O)=O)cc4)n3)cc2n1C(C)C              IC50               < 10 nM
21  CC(C)c1cnn2ccc(-c3ccnc(Nc4ccc(C(=O)N5CCC(NC6CC6)C5)cc4)n3)cc12 (stereo not shown) [compound 191]              IC50               < 10 nM
22  CC(C)n1cnc2c(F)nc(-c3ccnc(Nc4ccc(N5CCCC(N)C5=O)cc4F)n3)cc21 (stereo not shown)              IC50          10 to 100 nM
23  CNC1CCCN(c2ccc(Nc3ncc(C)c(-c4cc5c(ncn5C(C)C)c(F)n4)n3)cc2)C1=O (stereo not shown)              IC50        100 to 1000 nM
24  CC(C)c1cnn2ccc(-c3ccnc(Nc4ccc(N5CCC(C)(N)CC5=O)cc4Cl)n3)cc12 (stereo not shown)              IC50               < 10 nM
25  CC(C)n1cnc2c1CN(c1ccnc(Nc3ccc(N4CCOCC4=O)cn3)n1)CC2 [Synthetic Example 57]              IC50          10 to 100 nM
26  COc1nc(-c2ccnc(Nc3ccc4c(n3)CCN(C(=O)CC#N)C4)n2)cc2c1ncn2C(C)C              IC50             > 1000 nM
27  CC(C)c1cnn2ccc(-c3nc(Nc4ccc(N5CCOCC5=O)cn4)ncc3F)cc12              IC50               < 10 nM
28  CC(C)n1cnc2c1CN(c1nc(Nc3ccc(N4CCCC(N(C)C)C4)cc3)ncc1F)CC2 (stereo not shown)              IC50               < 10 nM
29  Cc1nn2ccc(-c3ccnc(Nc4ccc(N5CCC(N(C)C)CC5=O)cc4)n3)cc2c1C(C)C (stereo not shown)              IC50               < 10 nM
30  COc1nc(-c2nc(Nc3ccc(N4CCN(C5COC5)CC4=O)cn3)ncc2F)cc2c1nc(C)n2C(C)C              IC50             > 1000 nM
